Just for reference, PubChem BioAssay (NCI) is where these values come from.

Tested on: HOP-92 NSCLC
protocol.summary: NCI-60 one-dose screen, 48 h (100 = growth as untreated, 0 = no growth, -100 = all killed)
measurement.setup: 10 µM
Protocol: Growth inhibition of the HOP-92 human Non-Small Cell Lung tumor cell line is measured as a screen for anti-cancer activity. Cells are grown in 96 well plates and exposed to the test compound for 48 hours. Compounds are tested at a single concentration, which is 10^-5 M for most compounds. The reported endpoint is percent growth (GI% or GIPRCNT), where numbers from 0 - 100% represent growth inhibition, and numbers from -100% - 0 represent cell death. […]
About 83,000 compounds went through this panel and 20% of them were active in at least one assay; those are over-represented in the sample as a whole.
result.type: growth (%)

compound: CN1CCN(c2cc3c(cc2F)c(=O)c(C(=O)O)cn3-c2ccc(F)cc2)CC1
value.reported: 118
--
compound: C[C@@H](O)[C@H]1C(=O)N2C(C(=O)O)=C(SCCN=CN)C[C@H]12
value.reported: -8.43
--
compound: CN(C)c1nc(N)c2nccnc2n1
value.reported: 101
--
compound: CCN(CC)CCOc1ccc2c(c1O)C(=O)c1ccccc1C2=O
value.reported: 75.3
--
compound: COc1cc2ncnc(NC3CCC(O)CC3)c2cc1OC (stereo unspecified)
value.reported: 89.7
--
compound: CC1OC2CC(=O)OC2C2=C1C(=O)c1c(O)c3c(c(O)c1C2=O)C1CC(O)C3(O)C(C)O1 (stereo unspecified)
value.reported: -13
--
compound: CC(C)(C)OC(=O)N1CCc2c(sc3ncnc(N/N=C/c4ccc(Br)cc4)c23)C1
value.reported: 94.4
--
compound: Cc1ccc(NCCN(C)CC(C)O)c2c(=O)c3ccc(Cl)cc3sc12 (stereo unspecified)
value.reported: 34.3
--
compound: Cc1[nH]c2ccccc2c1/C=N/Nc1ncnc2sc3c(c12)CCN(CC(=O)OC(C)(C)C)C3
value.reported: 61.2
--
compound: Clc1ccc(/C=C2\CCCC3C2=Nc2ccccc2NC3c2ccc(Cl)cc2)cc1 (stereo unspecified)
value.reported: 60.6
--
compound: O=C(Cn1cc(CO)nn1)Nc1nc2ccccc2s1
value.reported: 106
--
compound: CCN(CC)CCOc1cccc2c1C(=O)c1cccc(OCCN(CC)CC)c1C2=O
value.reported: 36.5
--
compound: COc1ccc(-c2cc(-c3ccc(Cl)cc3)nc(SCCCC(=O)NO)n2)cc1
value.reported: 1.25
--
compound: COc1cc(-c2nn(-c3cccc(NC(=O)CCNc4ccc(N5CCOCC5)cc4)c3)cc2-c2ccncc2)ccc1Cl
value.reported: -6.34
--
compound: O=C(CSc1nccc(Nc2cccc3ccccc23)n1)c1ccc(Cl)cc1
value.reported: 82.5
--
compound: CS(=O)(=O)c1nccc(-c2c(-c3cccc(OCCN4CCOCC4)c3)nc3sccn23)n1
value.reported: 27.9
--
compound: Cc1cc(CSc2ccccc2C(=O)N2CC=C(c3ccccc3)CC2)on1
value.reported: 93.4
--
compound: C[C@]12CCC3c4ccc(O)cc4C[C@@H](CCCCCCCCCS(=O)CCCC(F)(F)C(F)(F)F)C3C1CC[C@@H]2O (stereo partly specified)
value.reported: 78
--
compound: NS(=O)(=O)Oc1ccc(NC(=O)C2CCCCCC2)cc1
value.reported: 98.9
--
compound: O=[N+]([O-])c1ccc2ncccc2c1Cl
value.reported: 99
--
compound: O=S(=O)(O)c1cccc(Nc2ccc3ccccc3c2)c1
value.reported: 74.8
